System: HEYA8
Experiment: MTS cell proliferation/viability assay, 72 hours drug exposure
Assay type: cell-based
Details: HEY A8, log10 of IC50, uM
IC50 overview

compound | measured-on | IC50 [µM]
C[C@H]1[C@H](OC(=O)CCC(=O)O)O[C@@H]2O[C@@]3(C)CC[C@H]4[C@H](C)CC[C@@H]1[C@@]24OO3 [Artesunate] | HEYA8 | 7.92
Cc1nc(Nc2ncc(C(=O)Nc3c(C)cccc3Cl)s2)cc(N2CCN(CCO)CC2)n1 | HEYA8 | 0.215

----------
Tested on: five OVCA cell lines
Experiment: MTS assay, summary over five OVCA cell lines
Type: cell-based
Details: five OVCA cell lines, 72 hours, MTS; read-out: median IC50
pIC50: −log10 of the molar value.

compound | measured-on | pIC50
C[C@H]1[C@H](OC(=O)CCC(=O)O)O[C@@H]2O[C@@]3(C)CC[C@H]4[C@H](C)CC[C@@H]1[C@@]24OO3 [Artesunate] | five OVCA cell lines | 5.15
